Hello, the source for this data is patent US11071731B2, in case you need it.

target: mu opioid receptor (MOR) (Homo sapiens, UniProt P35372); test: Hit Hunter cAMP signaling assay (adenylyl cyclase inhibition), PAM mode with EC20 endomorphin-1; type: cell-based; settings: adenylyl cyclase inhibition; read-out: cAMP EC50
Sequence (P35372 whole entry): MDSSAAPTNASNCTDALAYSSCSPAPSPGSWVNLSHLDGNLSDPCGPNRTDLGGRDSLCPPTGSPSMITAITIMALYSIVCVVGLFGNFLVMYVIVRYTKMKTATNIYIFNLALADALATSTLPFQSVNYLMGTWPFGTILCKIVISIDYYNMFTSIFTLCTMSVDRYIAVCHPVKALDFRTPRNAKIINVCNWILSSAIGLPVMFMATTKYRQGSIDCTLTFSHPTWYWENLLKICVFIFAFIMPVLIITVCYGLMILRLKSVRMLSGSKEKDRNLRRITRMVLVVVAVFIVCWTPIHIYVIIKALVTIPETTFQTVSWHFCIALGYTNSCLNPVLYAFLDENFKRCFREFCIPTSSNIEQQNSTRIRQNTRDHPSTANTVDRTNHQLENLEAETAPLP
compounds and their reported EC50

COc1ccc(C2C(C)CCCN2c2nc(Cl)ncc2F)cc1Br (stereo not shown): > 2.1 µM
CC1CCN(S(=O)(=O)c2ccc(Cl)cc2)C1c1cccc(Cl)c1 (stereo not shown): > 2.1 µM
O=S(=O)(c1ccc(Cl)cc1)N1CCCCC1c1ccc(Cl)cc1 (racemic): > 2.1 µM
N#Cc1ccc(C2CCCCN2S(=O)(=O)c2ccc(Cl)cc2)cc1C(F)(F)F (racemic): > 2.1 µM
O=S(=O)(c1ccc(Cl)cc1)N1CCCCC1c1ccnc(C(F)(F)F)c1 (racemic): > 2.1 µM
CC1CC(c2cc(F)cc(C(F)(F)F)c2)N(c2nc(Cl)ncc2F)C1 (stereo not shown): > 2.1 µM
COc1ccc(N2CCCCC2c2cccc(C(F)(F)F)n2)cc1 (stereo not shown): > 2.1 µM
CC1CC(c2cccc(C(F)(F)F)c2)N(c2nc(Cl)ncc2F)C1 (stereo not shown): > 2.1 µM
O=S(=O)(c1ccc(Cl)cc1)N1CCCCC1c1cncc(F)c1 (racemic): > 2.1 µM
O=S(=O)(c1ccc(Cl)cc1)N1CCCCC1c1ccnc(F)c1 (racemic): > 2.1 µM

Challenge: I would be grateful if you could share the reported EC50 for O=S(=O)(c1cccc(Cl)c1)N1CCCCC1c1cccc(C(F)(F)F)c1 (stereo not shown) .
Response given: > 2.1 µM

Challenge: I would be grateful if you could share the reported EC50 for Fc1ccc(C2COCCN2Cc2cc(Cl)ccc2F)cc1Cl (racemic) .
Response given: 0.7 to 2.1 µM

---

target: mu opioid receptor (MOR) (Homo sapiens, UniProt P35372); assay: Hit Hunter cAMP signaling assay (adenylyl cyclase inhibition), PAM mode with EC20 endomorphin-1; type: cell-based; details: adenylyl cyclase inhibition; read-out: cAMP EC50
readout-kind: EC50

O=S(=O)(c1ccc(Cl)cc1)N1CCCCC1c1ccc(Cl)c(C(F)(F)F)c1 (single isomer, unassigned) [compound 220]: 700 to 2100 nM

Challenge: I would be grateful if you could share the reported EC50 for O=S(=O)(c1cccc(Cl)c1)N1C2CCC(C2)C1c1ccc(F)c(Br)c1 (stereo not shown) .
Response given: > 2100 nM

Challenge: I would be grateful if you could share the reported EC50 for Fc1ccc(C2CC(F)CN2c2nc(Cl)ncc2F)cc1Cl (stereo not shown) .
Response given: > 2100 nM

Challenge: I would be grateful if you could share the reported EC50 for O=S(=O)(c1ccc(Cl)cc1)N1CCCCC1c1cccc(C(F)(F)F)c1 (stereo not shown) .
Response given: 700 to 2100 nM

---

target: mu opioid receptor (MOR) (Homo sapiens, UniProt P35372); assay: PathHunter β-arrestin recruitment assay, PAM mode with EC20 endomorphin-1; format: cell-based; settings: β-arrestin recruitment; read-out: β-arr. EC50
readout-kind: EC50

Worked examples, 3 compounds total:
CN(C)c1cccc(C2CCCCN2Cc2cc(Cl)ccc2F)n1 (centres unmarked): > 2100 nM
O=S(=O)(c1ccc(Cl)cc1F)N1CCCCC1c1cccc(C(F)(F)F)c1 (centres unmarked): > 2100 nM
Fc1ccc(C2C(F)CCCN2c2nc(Cl)ncc2F)cc1Br (centres unmarked) [compound 210]: > 2100 nM

Please look at the following compound next.
Challenge: I would be grateful if you could share the reported EC50 for Fc1cnc(Cl)nc1N1CCCCC1c1cc(C(F)(F)F)c2[nH]ncc2c1 (centres unmarked) .
Response given: < 700 nM
